Assign Residual rate to each entry below.
- assay details: Evaluation of conversion rate to active form in buffer solution (Experimental Example 1)
- Type: physicochemical
- conditions used: pH5.5, 0.5 hr
- Experimental: For Examples 1 to 16 and Comparative Examples 1 to 14, the attrition rate of the test compound and the conversion rate of the test compound to Alvocidib in a buffer solution were calculated by the following method. Examples 1 to 16 and Comparative Examples 1 to 14 were each left in buffer solutions adjusted to pH 5.0, 5.5, 6.0, 6.5, 7.0 and 7.4, respectively, at a concentration of 25 umol/L at 37° C. […]
Answers are plain numbers, in %.

Here are 2 compounds together with their reported answers.
CN1CC[C@H](c2c(OC(=O)N(C)CCN)cc(O)c3c(=O)cc(-c4ccccc4Cl)oc23)[C@H](O)C1 [Comparative Example 13, reference compound]; 91.3
CCOC(=O)O[C@@H]1CN(C)CC[C@@H]1c1c(O)cc(O)c2c(=O)cc(-c3ccccc3Cl)oc12 [Comparative Example 3, reference compound]; 90.9

Value of measured Residual rate for the entry C[C@H](N)C(=O)O[C@@H]1CN(C)CC[C@@H]1c1c(O)cc(O)c2c(=O)cc(-c3ccccc3Cl)oc12 [Comparative Example 7, reference compound] : 91.9

* * *

- assay details: Evaluation of conversion rate to active form in buffer solution (Experimental Example 1)
- Format: physicochemical
- conditions used: pH7.4, 1 hr
Cut-off 2% on Production rate of Alvocidib, inclusive. At or above means class 1; below means class 0.

CN1CC[C@H](c2c(OC(=O)N(C)CCN)cc(O)c3c(=O)cc(-c4ccccc4Cl)oc23)[C@H](O)C1 [Comparative Example 13, reference compound]; class 1
CNC(=O)Oc1cc(O)c2c(=O)cc(-c3ccccc3Cl)oc2c1[C@H]1CCN(C)C[C@H]1O [Comparative Example 2, reference compound]; class 1
CCOC(=O)O[C@@H]1CN(C)CC[C@@H]1c1c(O)cc(O)c2c(=O)cc(-c3ccccc3Cl)oc12 [Comparative Example 3, reference compound]; class 0
CCCCCCC(=O)O[C@@H]1CN(C)CC[C@@H]1c1c(O)cc(O)c2c(=O)cc(-c3ccccc3Cl)oc12 [Comparative Example 11, reference compound]; class 0
CNCCN(C)C(=O)Oc1cc(O)c2c(=O)cc(-c3ccccc3Cl)oc2c1[C@H]1CCN(C)C[C@H]1O [Comparative Example 14, reference compound]; class 1

Exercise: Evaluate `CN1CC[C@H](c2c(O)cc(O)c3c(=O)cc(-c4ccccc4Cl)oc23)[C@H](OC(=O)c2ccccc2F)C1` : Production rate of Alvocidib at minimum 2%?
Solution: class 0

* * *

- assay details: Evaluation of conversion rate to active form in buffer solution (Experimental Example 1)
- Format: physicochemical
- conditions used: pH5.0, 2 hr
Assign Production rate of Alvocidib to each entry below.
Numbers only, in %.

Here are 5 compounds together with their reported answers.
CN1CC[C@H](c2c(OC(=O)N(C)CCN)cc(O)c3c(=O)cc(-c4ccccc4Cl)oc23)[C@H](O)C1 [Comparative Example 13, reference compound]; 8.3
CNC(=O)O[C@@H]1CN(C)CC[C@@H]1c1c(O)cc(O)c2c(=O)cc(-c3ccccc3Cl)oc12 [Comparative Example 5, reference compound]; 0.0
CN1CC[C@H](c2c(O)cc(O)c3c(=O)cc(-c4ccccc4Cl)oc23)[C@H](OC(=O)CN)C1 [Comparative Example 8, reference compound]; 21.6
CNC(=O)Oc1cc(O)c2c(=O)cc(-c3ccccc3Cl)oc2c1[C@H]1CCN(C)C[C@H]1O [Comparative Example 2, reference compound]; 79.0
CCNC(=O)O[C@@H]1CN(C)CC[C@@H]1c1c(O)cc(O)c2c(=O)cc(-c3ccccc3Cl)oc12 [Comparative Example 4, reference compound]; 1.8

Alright, here's another compound for you.
Value of measured Production rate of Alvocidib for the entry CCOC(=O)O[C@@H]1CN(C)CC[C@@H]1c1c(O)cc(O)c2c(=O)cc(-c3ccccc3Cl)oc12 [Comparative Example 3, reference compound] : 1.3
